Method Summary: A quantitative high throughput screen for small molecules that induce DNA re-replication in SW480 colon adenocarcinoma cells. Also: nearly all actives have a fitted effect of over 55% in size.
Experimental Conditions: Hoechst DNA content imaging, 48 h; series mostly up to 46.1 µM
Source text: H Molecular Libraries Probe Production Network [MLPCN] NIH Chemical Genomics Center [NCGC] […] To identify compounds that induce re-replication in normal cells, an image-based assay was used to measure DNA content of nuclei, as detected by the fluorescent DNA binding dye, Hoechst. Cell nuclei were imaged by a fluorescence scanning plate imager and compounds that induce DNA re-replication were identified by the increase of nuclei with elevated fluorescence intensity […]
Screen size: about 340,000 compounds; about 6,200 (1.8%) were called active. Inconclusive results (about 10%) are left out. Calls follow the shape of the dose curve; as a rule, active = well fitted activation curve with a large enough effect; inconclusive = small, poorly fitted or top-dose-only effect; inactive = no such curve, though single readings can be large or run the other way. Many of the other results were omitted from the sample, so actives are more common in it than they were.
A correct response names exactly one class from active, inactive

Take a look at these entries with their results.
O=C(NCCN1CCOCC1)c1ccc2c(c1)ncn2C1CCCC1; inactive
Cc1c(C(=O)N2CCCc3ccccc32)sc2nc(-c3ccccc3)cn12; inactive
COc1cccc(OC)c1C(=O)Nc1sc2c(c1C(N)=O)CCCC2; inactive
O=c1[nH]c2c(c(=O)n1-c1ccccc1)CCO2; inactive
C[C@]12c3[nH]c4ccc(Cl)cc4c3CCN1C(=O)[C@@H](CC(=O)NCCCn1ccnc1)C[C@@H]2C(=O)N1CCOCC1; inactive

Call for entry "NC(=O)c1c(NC(=O)c2ccccc2)sc2c1CCCC2" :
inactive

Call for entry "CCCn1nc(NC(=O)C(C)C)c2cc3cc(OC)ccc3nc21" :
active

Call for entry "CCN(c1ccccc1)S(=O)(=O)c1ccc(C(=O)Nc2nccs2)cc1" :
inactive

Call for entry "O=C(Nc1ccc(Sc2ccc(Br)cc2)cc1)c1ccco1" :
inactive

Call for entry "Cc1ccc(NC(=O)CC(=O)Nc2ccc(C)cc2)cc1" :
inactive

Call for entry "c1ccc2cc3c(NCCN4CCOCC4)ccnc3cc2c1" :
active

Call for entry "CCCn1nc(NS(=O)(=O)c2ccc(F)cc2)c2cc3ccccc3nc21" :
inactive

Call for entry "N#C/C(=C(/O)COC(=O)COc1ccc(Cl)cc1)c1nc2ccccc2[nH]1" :
active

Call for entry "O=C1COc2ccc(C(=O)CSc3ccc(Br)cc3)cc2N1" :
inactive

Data provenance is PubChem BioAssay AID624297.
